Biological target: T1, StpA-CTD (Escherichia coli, UniProt P0ACG1 90-134)
T1 chain: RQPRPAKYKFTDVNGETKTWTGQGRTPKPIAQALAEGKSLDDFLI
Assay: ITC; 5 C; n=1.78; 50 mM BisTris, 25 mM NaCl, pH 6.4; ITC at 5 and 25 C (40 uM RNA in cell, StpA-CTD 400/800/920 uM injected); NMR with 10% D2O, titration at 25 C
Conditions: protein: recombinant; tags: none (His6-SUMOstar removed by SUMO protease); chain copies: 2; hairpin (3'-fold), 1 nt 5' overhang
quantityMeasured: Kd

Query: Kd; subject: CGGAAGGUCCGCCUUCC (structured_RNA) [3'-HP] 11.3 µM
